All values here come from patent US8975267B2.

Test target: PIM-1 (Homo sapiens (Human))
Sequence (P11309 whole entry): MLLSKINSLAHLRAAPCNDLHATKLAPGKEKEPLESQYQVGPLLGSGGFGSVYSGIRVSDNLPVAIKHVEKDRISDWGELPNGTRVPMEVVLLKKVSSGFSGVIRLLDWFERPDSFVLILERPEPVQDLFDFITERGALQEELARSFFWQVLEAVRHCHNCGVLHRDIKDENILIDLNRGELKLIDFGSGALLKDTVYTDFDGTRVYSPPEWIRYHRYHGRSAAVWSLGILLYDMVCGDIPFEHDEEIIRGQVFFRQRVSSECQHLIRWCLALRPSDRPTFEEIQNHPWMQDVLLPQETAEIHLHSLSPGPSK
Structures can show the parent of a compound that is named as a salt.
// returns Not met unless IC50 is strictly below 70 nM, in which case Met

Example cases with answers are listed next.
{"columns": ["Compound", "Test target", "Class name"],
 "data": [
  ["CSc1ncc2ccc3c(C(N)=O)c[nH]c3c2n1 [Compound 36]", "PIM-1 (Homo sapiens (Human))", "Met"],
  ["CSc1ncc2c(n1)-c1c(c(C(N)=O)cn1C1CCNCC1)CC2 [Compound 32, hydrochloride]", "PIM-1 (Homo sapiens (Human))", "Not met"],
  ["CSc1ncc2ccc3c(C(N)=O)cn(CC(C)(C)CN)c3c2n1 [Compound 38, hydrochloride]", "PIM-1 (Homo sapiens (Human))", "Met"]
]}

Regarding NC(=O)c1c(-c2ccccc2)[nH]c2c1ccc1cnc(N)nc12 [compound 2, reference compound] , kindly confirm whether its IC50 is beneath 70 nM.
Not met

----------
Test target: UniProt Q9P1W9
Sequence (Q9P1W9 whole entry): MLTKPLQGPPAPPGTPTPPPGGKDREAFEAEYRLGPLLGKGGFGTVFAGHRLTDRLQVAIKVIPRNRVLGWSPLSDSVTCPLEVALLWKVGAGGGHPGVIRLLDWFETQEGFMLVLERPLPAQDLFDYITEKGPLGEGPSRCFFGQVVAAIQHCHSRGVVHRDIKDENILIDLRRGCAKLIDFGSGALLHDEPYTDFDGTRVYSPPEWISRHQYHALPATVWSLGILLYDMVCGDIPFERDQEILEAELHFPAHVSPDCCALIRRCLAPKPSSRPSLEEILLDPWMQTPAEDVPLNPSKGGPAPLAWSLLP
Counter-ions that a name gives are not always drawn.
Assay metric: IC50

Here is how some molecules turned out for IC50.
{"columns": ["Molecule", "Test result"],
 "data": [
  ["CSc1ncc2ccc3c(C(N)=O)c(C)n(C(C)C)c3c2n1 [Compound 30]", "12 nM"],
  ["COc1cc(N2CCN(C)CC2)ccc1Nc1ncc2c(n1)-c1c(c(C(N)=O)c(C)n1C)CC2 [Compound 7]", "> 5000 nM"],
  ["CCc1cccc(CC)c1NC(=O)c1c2c(n(C)c1C)-c1nc(Nc3ccc(N4CCC(N5CCCC5)CC4)cc3OC)ncc1CC2 [Compound 3]", "> 10000 nM"],
  ["CSc1ncc2ccc3c(C(N)=O)cn(CC(C)(C)CN)c3c2n1 [Compound 38, hydrochloride]", "34 nM"],
  ["CCc1cccc(CC)c1NC(=O)c1cn(C)c2c1CCCc1cnc(Nc3ccc(N4CCN(C)CC4)cc3OC)nc1-2 [Compound 16]", "> 10000 nM"]
]}

Recorded IC50 of Cn1c(-c2ccccc2)c(C(N)=O)c2ccc3cnc(N)nc3c21 [compound 4, reference compound] , please.
> 10000 nM

What about CSc1ncc2c(n1)-c1c(c(C(N)=O)cn1[C@H]1CC[C@@H](N)CC1)CC2 [Compound 33, hydrochloride] ?
7 nM

Cool, now NC(=O)c1c(-c2ccccc2)[nH]c2c1ccc1cnc(N)nc12 [compound 2, reference compound]
> 10000 nM

Follow-up item: CSc1ncc2ccc3c(C(N)=O)c[nH]c3c2n1 [Compound 36]
46 nM

Can you check Cn1c2c(c(C(N)=O)c1-c1ccccc1)CCc1cnc(N)nc1-2 [compound 3, reference compound] next?
> 10000 nM

Repeat for the following molecule: Cn1cc(C(N)=O)c2c1-c1nc(N)ncc1CC2 [Ref. cmpound 1, reference compound]
> 10000 nM

----------
Where a name gives a salt, the structure may show the parent alone.
Here's a batch of compounds along with measured pIC50 for PIM-1 (Homo sapiens (Human)).
The meaning of pIC50 here: minus log10 of the concentration in molar units.

Below, each entry is followed by its recorded pIC50 result.
{"columns": ["Compound", "pIC50"],
 "data": [
  ["CSc1ncc2ccc3c(C(N)=O)cn(C4CCNCC4)c3c2n1 [Compound 35]", 8.15],
  ["CSc1ncc2c(n1)-c1c(c(C(N)=O)cn1[C@H]1CC[C@@H](N)CC1)CC2 [Compound 33, hydrochloride]", 8.30],
  ["COc1cc(N2CCN(C)CC2)ccc1Nc1ncc2c(n1)-c1c(c(C(N)=O)c(C)n1C)CC2 [Compound 7]", 6.13]
]}

Here's the next entry for you.
Lab note: need pIC50 with PIM-1 (Homo sapiens (Human)) for entry CSc1ncc2ccc3c(C(N)=O)cn([C@H]4CC[C@@H](N)CC4)c3c2n1 [Compound 34] , please look it up.
9.10
